Some molecules, each annotated with its measured IC50.
target.under.test: phosphorylated EGFR (pEGFR) (Homo sapiens, UniProt P00533)
Construct: performed to measure phosphorylated EGFR levels using A431 cells (10% FBS); endogenous in cells
Sequence (P00533 25-1210): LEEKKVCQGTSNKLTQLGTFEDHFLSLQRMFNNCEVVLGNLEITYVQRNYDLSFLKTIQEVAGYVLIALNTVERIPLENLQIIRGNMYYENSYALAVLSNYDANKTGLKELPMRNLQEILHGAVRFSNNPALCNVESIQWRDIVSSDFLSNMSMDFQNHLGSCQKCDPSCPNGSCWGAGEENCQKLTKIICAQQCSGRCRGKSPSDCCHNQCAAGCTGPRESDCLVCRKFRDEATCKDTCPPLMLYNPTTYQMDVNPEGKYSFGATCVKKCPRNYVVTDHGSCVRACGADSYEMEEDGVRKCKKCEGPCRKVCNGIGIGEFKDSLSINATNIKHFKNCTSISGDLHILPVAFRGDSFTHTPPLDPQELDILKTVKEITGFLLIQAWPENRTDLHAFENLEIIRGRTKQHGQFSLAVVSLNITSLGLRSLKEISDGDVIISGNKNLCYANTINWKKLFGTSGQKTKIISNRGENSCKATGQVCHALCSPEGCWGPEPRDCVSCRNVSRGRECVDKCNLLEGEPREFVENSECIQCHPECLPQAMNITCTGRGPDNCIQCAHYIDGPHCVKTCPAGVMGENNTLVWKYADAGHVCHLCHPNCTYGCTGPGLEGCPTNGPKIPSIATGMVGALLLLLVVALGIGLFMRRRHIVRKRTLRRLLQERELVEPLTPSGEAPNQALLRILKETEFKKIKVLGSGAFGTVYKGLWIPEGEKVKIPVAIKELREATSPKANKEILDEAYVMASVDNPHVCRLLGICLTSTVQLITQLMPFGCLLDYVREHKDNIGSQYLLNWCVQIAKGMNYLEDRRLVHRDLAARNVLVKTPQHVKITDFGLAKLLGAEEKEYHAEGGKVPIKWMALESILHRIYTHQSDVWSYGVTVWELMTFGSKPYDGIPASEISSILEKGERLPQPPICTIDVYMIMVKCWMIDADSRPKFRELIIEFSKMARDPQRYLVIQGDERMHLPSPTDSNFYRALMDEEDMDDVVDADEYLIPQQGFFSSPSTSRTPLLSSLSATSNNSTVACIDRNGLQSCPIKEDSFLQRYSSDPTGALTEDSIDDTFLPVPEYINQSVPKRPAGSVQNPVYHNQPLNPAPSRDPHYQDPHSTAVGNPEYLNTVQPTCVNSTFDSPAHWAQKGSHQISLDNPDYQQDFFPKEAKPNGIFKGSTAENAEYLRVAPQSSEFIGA
assay.text: Detection of phosphorylated EGFR (pEGFR) by AlphaLISA in EGF-stimulated A431 cells
condition.description: A431 cells (10% FBS), 4 hours incubation, EGF 30 ng/mL for 10 minutes
# number only, unit µM dropped from output

Reference set, count: 5
| molecule | endpoint.result |
| --- | --- |
| C=CC(=O)N1CCN2c3ccc4ncnc(Nc5ccc(Oc6ccc7c(c6)ncn7C)c(C)c5)c4c3OC[C@@H]2C1 | 0.575 |
| CN(C)C/C=C/C(=O)N1CCN2c3ccc4ncnc(Nc5cc(F)c(Oc6ccn7ncnc7c6)cc5F)c4c3OC[C@H]2C1 | 8.06 |
| CN(C)C/C=C/C(=O)N1CCN2c3ccc4ncnc(Nc5ccc(Oc6ccn7ncnc7c6)cc5F)c4c3OC[C@@H]2C1 | 2.78 |
| Cc1cc(Nc2ncnc3ccc4c(c23)OC[C@H]2CN4CCN2C(=O)/C=C/CN(C)C)ccc1Oc1ccc2c(c1)nnn2C | 0.0844 |
| Cc1cc(Nc2ncnc3ccc4c(c23)OC[C@H]2CN4CCN2C(=O)/C=C/CN(C)C)ccc1Oc1ccc2c(c1)ncn2C | 0.246 |

Inquiry: Fill in IC50 for Cc1cc(Nc2ncnc3ccc4c(c23)OC[C@H]2CN(C(=O)/C=C/CN(C)C)CCN42)c(F)cc1Oc1ccn2ncnc2c1 tested with phosphorylated EGFR (pEGFR) (Homo sapiens, UniProt P00533).
Reply text: 0.572

----------
target.under.test: Ba/F3 ERBB2 YVMA (Homo sapiens, UniProt P04626, DUP772-775, cells depend on it)
Sequence (P04626 with tags, fused parts or gaps DUP772-775): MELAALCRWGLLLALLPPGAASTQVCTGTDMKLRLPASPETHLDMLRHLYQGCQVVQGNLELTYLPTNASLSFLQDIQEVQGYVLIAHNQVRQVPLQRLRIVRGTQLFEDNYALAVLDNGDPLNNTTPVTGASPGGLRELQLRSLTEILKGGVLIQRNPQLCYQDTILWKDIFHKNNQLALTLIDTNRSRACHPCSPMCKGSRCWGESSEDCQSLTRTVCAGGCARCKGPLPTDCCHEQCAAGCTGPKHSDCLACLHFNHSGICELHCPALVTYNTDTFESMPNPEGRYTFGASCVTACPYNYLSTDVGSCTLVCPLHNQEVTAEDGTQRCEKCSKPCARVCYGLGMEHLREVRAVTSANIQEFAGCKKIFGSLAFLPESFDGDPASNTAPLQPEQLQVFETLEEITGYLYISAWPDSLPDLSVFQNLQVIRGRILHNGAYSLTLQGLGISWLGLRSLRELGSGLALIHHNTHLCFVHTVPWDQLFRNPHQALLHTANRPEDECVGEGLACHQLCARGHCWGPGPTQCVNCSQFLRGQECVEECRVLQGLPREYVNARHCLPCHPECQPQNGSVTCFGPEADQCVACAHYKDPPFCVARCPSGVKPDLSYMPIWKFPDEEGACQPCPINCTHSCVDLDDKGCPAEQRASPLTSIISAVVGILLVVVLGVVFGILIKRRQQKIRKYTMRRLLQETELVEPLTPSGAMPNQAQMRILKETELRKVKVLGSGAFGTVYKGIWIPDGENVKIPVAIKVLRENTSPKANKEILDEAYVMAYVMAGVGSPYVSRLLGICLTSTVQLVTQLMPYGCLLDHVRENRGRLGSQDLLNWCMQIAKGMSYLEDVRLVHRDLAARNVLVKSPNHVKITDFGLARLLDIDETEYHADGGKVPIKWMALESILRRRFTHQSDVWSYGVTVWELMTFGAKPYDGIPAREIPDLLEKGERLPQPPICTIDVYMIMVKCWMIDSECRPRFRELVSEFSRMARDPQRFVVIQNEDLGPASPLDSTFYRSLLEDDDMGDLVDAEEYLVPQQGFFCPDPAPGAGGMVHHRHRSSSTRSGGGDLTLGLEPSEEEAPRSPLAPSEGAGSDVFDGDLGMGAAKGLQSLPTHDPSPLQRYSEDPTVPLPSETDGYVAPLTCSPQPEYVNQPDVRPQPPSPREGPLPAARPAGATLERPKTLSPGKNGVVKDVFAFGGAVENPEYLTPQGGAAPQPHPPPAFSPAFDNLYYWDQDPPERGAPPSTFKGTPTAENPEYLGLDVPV
assay.text: Cell viability assay (CellTiter Glo), Ba/F3 cells engineered to express ERBB2 YVMA
Type: cell-based, mouse
condition.description: Ba/F3 cells expressing human ERBB2 YVMA mutant, 72 hours, read-out: Ba/F3 ERBB2 YVMA, IC50
Items are presented alongside their recorded GI50.

Answered cases to consult:
| molecule | GI50 |
| --- | --- |
| CN(C)C/C=C/C(=O)N1CCN2c3ccc4ncnc(Nc5cc(F)c(Oc6ccn7ncnc7c6)cc5F)c4c3OC[C@H]2C1 | 3.6 nM |
| Cc1cc(Nc2ncnc3cc4c(nc23)N2CCN(C(=O)/C=C/CN(C)C)C[C@@H]2CO4)ccc1Oc1ccn2ncnc2c1 | 4.89 nM |
| Cc1cc(Nc2ncnc3ccc4c(c23)OC[C@@H]2CN(C(=O)/C=C/CN(C)C)CCN42)ccc1Oc1ccc2c(c1)ncn2C | 13.8 nM |
| Cc1cc(Nc2ncnc3cc4c(cc23)N2CCN(C(=O)/C=C/CN(C)C)C[C@H]2CO4)ccc1Oc1ccn2ncnc2c1 | 41.2 nM |
| Cc1cc(Nc2ncnc3cnc4c(c23)O[C@@H]2CCN(C)C[C@H]2N4C)ccc1Oc1ccc2c(c1)ncn2C | 60.1 nM |
| Cc1cc(Nc2ncnc3ccc4c(c23)OC[C@H]2CN4CCN2C(=O)/C=C/CN(C)C)ccc1Oc1ccc2c(c1)nnn2C | 6.04 nM |

Inquiry: Please look at this molecule and report its GI50: Cc1cc(Nc2ncnc3ccc4c(c23)OC[C@H]2CN4CCN2C(=O)/C=C/CN(C)C)ccc1Oc1ccc2c(c1)ncn2C
Reply text: 12.6 nM

Inquiry: Tell us which GI50 value is on record for C=CC(=O)N1CCN2c3ccc4ncnc(Nc5ccc(Oc6ccc7c(c6)ncn7C)c(C)c5)c4c3OC[C@@H]2C1
Reply text: 16.2 nM

Inquiry: Supply recorded GI50 for Cc1cc(Nc2ncnc3cnc4c(c23)O[C@H]2CCN(C)C[C@H]2N4C)ccc1Oc1ccc2c(c1)ncn2C here.
Reply text: 87.1 nM

Inquiry: Annotate the molecule Cc1cc(Nc2ncnc3cc4c(nc23)N2CCN(C)C[C@H]2CO4)ccc1Oc1ccn2ncnc2c1 with its measured GI50.
Reply text: 271 nM

Inquiry: Please list GI50 recorded for the molecule Cc1cc(Nc2ncnc3ccc4c(c23)OC[C@H]2CN4CCN2C(=O)/C=C/[C@H](C)N(C)C)c(F)cc1Oc1ccn2ncnc2c1 [Compound 91, triformate]
Reply text: 164 nM

Inquiry: Please list GI50 recorded for the molecule Cc1cc(Nc2ncnc3ccc4c(c23)OC[C@@H]2CN(C(=O)/C=C/CN(C)C)CCN42)c(F)cc1Oc1ccn2ncnc2c1
Reply text: 18 nM

Inquiry: Please supply the value of reported GI50 for the item Cc1cc(Nc2ncnc3ccc4c(c23)O[C@@H]2CCNC[C@@H]2N4C)ccc1Oc1ccc2c(c1)ncn2C
Reply text: > 500 nM

Inquiry: Determine from records and report GI50 for Cc1cc(Nc2ncnc3ccc4c(c23)O[C@@H]2CCN(C)C[C@@H]2N4C)ccc1Oc1ccc2c(c1)ncn2C [Compound 129]
Reply text: 111 nM

----------
Entries and their measured pIC50 follow.
target.under.test: phosphorylated EGFR (pEGFR) (Homo sapiens, UniProt P00533)
Construct: performed to measure phosphorylated EGFR levels using A431 cells (10% FBS); endogenous in cells
assay.text: Detection of phosphorylated EGFR (pEGFR) by AlphaLISA in EGF-stimulated A431 cells
condition.description: A431 cells (10% FBS), 4 hours incubation, EGF 30 ng/mL for 10 minutes
Please note pIC50 is a logarithmic value: minus log10 of concentration in mol/L. Answer with that number alone.

| compound | endpoint.result |
| --- | --- |
| Cc1cc(Nc2ncnc3ccc4c(c23)OC[C@@H]2CN(C(=O)/C=C/CN(C)C)CCN42)c(F)cc1Oc1ccn2ncnc2c1 [Compound 92] | 5.67 |

Inquiry: Give the reported value of pIC50 for this record: CC#CC(=O)N1CCN2c3cc4c(Nc5ccc(Oc6ccc7c(c6)ncn7C)c(C)c5)ncnc4cc3OC[C@@H]2C1 [Compound 14]
Reply text: 6.26

----------
target.under.test: phosphorylated ERBB2 (pERBB2) (Homo sapiens, UniProt P04626)
Construct: endogenous in cells
Sequence (P04626 23-1255): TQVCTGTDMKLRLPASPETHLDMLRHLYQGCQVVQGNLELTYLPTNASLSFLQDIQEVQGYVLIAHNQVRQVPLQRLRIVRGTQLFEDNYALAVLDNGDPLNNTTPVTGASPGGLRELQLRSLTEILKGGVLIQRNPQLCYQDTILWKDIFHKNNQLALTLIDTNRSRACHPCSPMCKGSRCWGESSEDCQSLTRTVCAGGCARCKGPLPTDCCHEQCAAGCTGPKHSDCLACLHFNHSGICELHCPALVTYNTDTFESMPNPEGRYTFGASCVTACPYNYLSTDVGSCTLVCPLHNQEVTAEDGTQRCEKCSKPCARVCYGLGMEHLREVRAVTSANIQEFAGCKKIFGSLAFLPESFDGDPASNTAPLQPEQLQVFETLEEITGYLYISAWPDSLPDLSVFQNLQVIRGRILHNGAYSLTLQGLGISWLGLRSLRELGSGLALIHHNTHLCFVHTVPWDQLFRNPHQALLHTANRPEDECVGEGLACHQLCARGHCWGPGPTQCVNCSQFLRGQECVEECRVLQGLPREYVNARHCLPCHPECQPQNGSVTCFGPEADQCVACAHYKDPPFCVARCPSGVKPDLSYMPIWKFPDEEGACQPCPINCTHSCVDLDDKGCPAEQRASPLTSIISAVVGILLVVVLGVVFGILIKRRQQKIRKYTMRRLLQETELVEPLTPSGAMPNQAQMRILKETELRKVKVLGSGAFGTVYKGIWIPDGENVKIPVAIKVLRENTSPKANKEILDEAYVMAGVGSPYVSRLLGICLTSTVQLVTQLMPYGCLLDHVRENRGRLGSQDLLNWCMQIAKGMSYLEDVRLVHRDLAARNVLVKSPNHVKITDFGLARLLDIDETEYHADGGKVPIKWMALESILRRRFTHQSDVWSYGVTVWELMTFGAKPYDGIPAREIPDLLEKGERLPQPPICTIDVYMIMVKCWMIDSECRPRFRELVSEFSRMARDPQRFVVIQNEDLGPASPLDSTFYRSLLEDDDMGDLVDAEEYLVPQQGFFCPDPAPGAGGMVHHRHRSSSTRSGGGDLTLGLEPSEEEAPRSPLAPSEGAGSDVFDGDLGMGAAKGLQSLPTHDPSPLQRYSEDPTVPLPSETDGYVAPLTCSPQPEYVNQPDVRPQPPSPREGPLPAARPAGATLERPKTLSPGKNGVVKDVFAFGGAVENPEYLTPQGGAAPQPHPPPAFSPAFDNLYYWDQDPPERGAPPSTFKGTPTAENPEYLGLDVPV
assay.text: Detection of phosphorylated ERBB2 (pERBB2) by ELISA in BT-474 cells
condition.description: four hour incubation
measurement.type: IC50 (nM)
Hi! Could you send only the number? It should be in nM, unit omitted.

| compound | IC50 (nM) |
| --- | --- |
| Cc1cc(Nc2ncnc3cnc4c(c23)OC[C@H]2CN(C)CCN42)ccc1Oc1ccc2c(c1)ncn2C [Compound 120] | 26.4 |

Inquiry: Fill in: IC50 on phosphorylated ERBB2 (pERBB2) (Homo sapiens, UniProt P04626), entry Cc1cc(Nc2ncnc3cc4c(cc23)N2CCNC[C@@H]2CO4)ccc1Oc1ccn2ncnc2c1 [Compound 59]
Reply text: 91.7

Inquiry: # assay system phosphorylated ERBB2 (pERBB2) (Homo sapiens, UniProt P04626): give IC50 of C=CC(=O)N1CCN2c3nc4c(Nc5ccc(Oc6ccn7ncnc7c6)c(C)c5)ncnc4cc3OC[C@@H]2C1 [Compound 1]
Reply text: 5.77

Inquiry: Report value only: IC50, phosphorylated ERBB2 (pERBB2) (Homo sapiens, UniProt P04626), CN(C)C/C=C/C(=O)N1CCN2C[C@@H]1COc1c2ccc2ncnc(Nc3ccc(Oc4ccn5ncnc5c4)c(F)c3)c12 [Compound 76]
Reply text: 5.66

----------
target.under.test: Ba/F3 ERBB2 YVMA (Homo sapiens, UniProt P04626, DUP772-775, cells depend on it)
assay.text: Cell viability assay (CellTiter Glo), Ba/F3 cells engineered to express ERBB2 YVMA
Type: cell-based, mouse
condition.description: Ba/F3 cells expressing human ERBB2 YVMA mutant, 72 hours, read-out: Ba/F3 ERBB2 YVMA, IC50
measurement.type: GI50 (nM)
Provide only the numeric value, understood in nM.

Examples with answers:
| compound | GI50 [nM] |
| --- | --- |
| Cc1cc(Nc2ncnc3cc4c(cc23)N2CCOC[C@H]2CO4)ccc1Oc1ccc2c(c1)ncn2C [Compound 121] | 71 |
| CC#CC(=O)N1CCN2c3cc4c(Nc5ccc(Oc6ccc7c(c6)ncn7C)c(C)c5)ncnc4cc3OC[C@@H]2C1 [Compound 14] | 14.4 |
| C=CC(=O)N1CCN2C[C@@H]1COc1c2ccc2ncnc(Nc3ccc(Oc4ccn5ncnc5c4)c(C)c3)c12 [Compound 25] | 15.5 |
| Cc1cc(Nc2ncnc3cnc4c(c23)OC[C@H]2CN4CCN2C(=O)/C=C/CN(C)C)c(F)cc1Oc1ccn2ncnc2c1 [Compound 83] | 14 |
| Cc1cc(Nc2ncnc3cc4c(cc23)N2CCN(C(=O)/C=C/CN(C)C)C[C@H]2CO4)ccc1Oc1ccc2c(c1)ncn2C [Compound 11] | 65.3 |

Moving on to another compound below.
Inquiry: Give the value of GI50 reported for the following: C=CC(=O)N1CCN2c3nc4c(Nc5ccc(Oc6ccn7ncnc7c6)c(C)c5)ncnc4cc3OC[C@@H]2C1 [Compound 1]
Reply text: 1.6

----------
target.under.test: phosphorylated EGFR (pEGFR) (Homo sapiens, UniProt P00533)
Construct: performed to measure phosphorylated EGFR levels using A431 cells (10% FBS); endogenous in cells
assay.text: Detection of phosphorylated EGFR (pEGFR) by AlphaLISA in EGF-stimulated A431 cells
condition.description: A431 cells (10% FBS), 4 hours incubation, EGF 30 ng/mL for 10 minutes
measurement.type: IC50

Illustrative cases are given below, each with its answer.
| compound | target.under.test | endpoint.result |
| --- | --- | --- |
| Cc1cc(Nc2ncnc3ccc4c(c23)OC[C@@H]2CN4CCN2C)ccc1Oc1ccc2c(c1)ncn2C | phosphorylated EGFR (pEGFR) (Homo sapiens, UniProt P00533) | > 10 µM |
| C=CC(=O)N1CCN2c3ccc4ncnc(Nc5ccc(Oc6ccn7ncnc7c6)c(C)c5)c4c3OC[C@@H]2C1 | phosphorylated EGFR (pEGFR) (Homo sapiens, UniProt P00533) | 0.517 µM |
| Cc1cc(Nc2ncnc3cc4c(nc23)N2CCOC[C@H]2CO4)ccc1Oc1ccc2c(c1)ncn2C | phosphorylated EGFR (pEGFR) (Homo sapiens, UniProt P00533) | > 10 µM |
| Cc1cc(Nc2ncnc3ccc4c(c23)OC[C@H]2CN(C)CCN42)ccc1Oc1ccn2ncnc2c1 | phosphorylated EGFR (pEGFR) (Homo sapiens, UniProt P00533) | > 10 µM |
| Cc1c(Oc2ccn3ncnc3c2)ccc(Nc2ncnc3cc4c(nc23)N2CCN(C)C[C@H]2CO4)c1F | phosphorylated EGFR (pEGFR) (Homo sapiens, UniProt P00533) | > 10 µM |

Inquiry: Supply IC50 value. Item: Cc1cc(Nc2ncnc3cc4c(nc23)N2CCN(C(=O)/C=C/CN(C)C)C[C@H]2CO4)ccc1Oc1ccn2ncnc2c1
Reply text: 0.13 µM

Inquiry: Tell me IC50 reported for Cc1cc(Nc2ncnc3ccc4c(c23)O[C@H]2CCN(C)C[C@@H]2N4)ccc1Oc1ccc2c(c1)ncn2C (relative stereo)
Reply text: > 10 µM

Inquiry: Input Cc1cc(Nc2ncnc3ccc4c(c23)OC[C@H]2COCCN42)ccc1Oc1ccc2c(c1)ncn2C , output reported IC50.
Reply text: 9.52 µM

Inquiry: Give the measured IC50 for Cc1cc(Nc2ncnc3cc4c(nc23)N2CCOC[C@H]2CO4)ccc1Oc1ccn2ncnc2c1
Reply text: > 10 µM

Inquiry: For the compound Cc1c(Oc2ccn3ncnc3c2)ccc(Nc2ncnc3cc4c(nc23)N2CCOC[C@H]2CO4)c1F , report IC50.
Reply text: > 10 µM
